System: Escherichia coli TOP10;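 further: peptides expressed intracellularly from a pBAD plasmid library in pooled LB shake-flask culture, induced with 0.3% L-arabinose, DNA abundance read by NGS, three biological replicates, DESeq2 with apeglm shrinkage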
Test: shrunken log2 fold change of peptide-encoding DNA abundance (4.5 h post-induction vs induction); higher = less antimicrobial activity (less host growth inhibition)
Conditions: time post-induction: 4.5 h; library: site-saturation at positions 5, 18, 19, 20
Output: class label from shrunken log2 fold change. Mapping: lower level = under -0.2, middle level = from -0.2 up to 0.009, upper level = 0.009 and over

Known results for sequences:
[
  {
    "ORDERED RESIDUES": "RRIRFRPPRLPRPRPRPHLKPRP",
    "ASSIGNED CATEGORY": "lower level"
  },
  {
    "ORDERED RESIDUES": "RRIRCRPPRLPRPRPRPIWGPRP",
    "ASSIGNED CATEGORY": "upper level"
  },
  {
    "ORDERED RESIDUES": "RRIRRRPPRLPRPRPRPHHSPRP",
    "ASSIGNED CATEGORY": "lower level"
  },
  {
    "ORDERED RESIDUES": "RRIRPRPPRLPRPRPRPKSDPRP",
    "ASSIGNED CATEGORY": "upper level"
  },
  {
    "ORDERED RESIDUES": "RRIRIRPPRLPRPRPRPLWIPRP",
    "ASSIGNED CATEGORY": "lower level"
  }
]

Request: Class (by measured shrunken log2 fold change) for RRIRHRPPRLPRPRPRPQYLPRP
Response: upper level

Request: Class (by measured shrunken log2 fold change) for RRIRQRPPRLPRPRPRPIGYPRP
Response: middle level

Request: Class (by measured shrunken log2 fold change) for RRIRARPPRLPRPRPRPTPYPRP
Response: middle level

Request: Class (by measured shrunken log2 fold change) for RRIRERPPRLPRPRPRPYFWPRP
Response: middle level

Request: Class (by measured shrunken log2 fold change) for RRIRMRPPRLPRPRPRPYTLPRP
Response: lower level

Request: Class (by measured shrunken log2 fold change) for RRIRYRPPRLPRPRPRPWEYPRP
Response: middle level

Request: Class (by measured shrunken log2 fold change) for RRIRWRPPRLPRPRPRPQTLPRP
Response: upper level

Request: Class (by measured shrunken log2 fold change) for RRIRWRPPRLPRPRPRPYNDPRP
Response: middle level

Request: Class (by measured shrunken log2 fold change) for RRIRARPPRLPRPRPRPKFLPRP
Response: upper level

Request: Class (by measured shrunken log2 fold change) for RRIRYRPPRLPRPRPRPKIPPRP
Response: lower level
